Provenance of the data: patent US11951109B2

# procedure.summary: clinical
# test.parameters: human, in vivo

| given.smiles | half-life |
| --- | --- |
| CCN(c1cc(-c2ccc(CN3CCOCC3)cc2)cc(C(=O)NCc2c(C)cc(C)[nH]c2=O)c1C)C1CCOCC1 | 3 to 5 h |

---

# Test system: WSU-DLCL2
# procedure.summary: Combination of EPZ-6438 and other therapeutic agents (4+3 model), WSU-DLCL2
# test.parameters: Mutant EZH2 GCB; EPZ-6438 4 days then co-treatment 3 days (4+3 model)
assay.endpoint: combination effect with EPZ-6438, WSU-DLCL2

| given.smiles | target | recorded.result |
| --- | --- | --- |
| CN(C)C(=O)c1cc2cnc(Nc3ccc(N4CCNCC4)cn3)nc2n1C1CCCC1 | WSU-DLCL2 | S |
| CCn1cc(-c2ccnc3[nH]c(-c4cccc(CN(C)C)c4)cc23)c(-c2ccc(NC(=O)N(C)C)cc2)n1 | WSU-DLCL2 | S |
| CC(=O)Nc1cccc(-n2c(=O)n(C3CC3)c(=O)c3c(Nc4ccc(I)cc4F)n(C)c(=O)c(C)c32)c1 | WSU-DLCL2 | S |
| CC(=O)c1c(C)c2cnc(Nc3ccc(N4CCNCC4)cn3)nc2n(C2CCCC2)c1=O | WSU-DLCL2 | S |
| C[C@@H]1C[C@H]2[C@@H]3CCC4=CC(=O)C=C[C@]4(C)[C@@]3(F)[C@@H](O)C[C@]2(C)[C@@]1(O)C(=O)CO | WSU-DLCL2 | S |
| C[C@]12C=CC(=O)C=C1CC[C@@H]1[C@@H]2[C@@H](O)C[C@@]2(C)[C@H]1CC[C@]2(O)C(=O)CO | WSU-DLCL2 | S |
| COc1cc(Nc2ncc(F)c(Nc3ccc4c(n3)NC(=O)C(C)(C)O4)n2)cc(OC)c1OC | WSU-DLCL2 | S |
| CNC(=O)c1cc(Oc2ccc(NC(=O)Nc3ccc(Cl)c(C(F)(F)F)c3)cc2)ccn1 | WSU-DLCL2 | ADD. |
| CO[C@H]1C[C@@H]2CC[C@@H](C)[C@@](O)(O2)C(=O)C(=O)N2CCCC[C@H]2C(=O)O[C@H]([C@H](C)C[C@@H]2CC[C@@H](OCCO)[C@H](OC)C2)CC(=O)[C@H](C)/C=C(\C)[C@@H](O)[C@@H](OC)C(=O)[C@H](C)C[C@H](C)/C=C/C=C/C=C/1C | WSU-DLCL2 | S |
| CC(C)NC[C@@H](C(=O)N1CCN(c2ncnc3c2[C@H](C)C[C@H]3O)CC1)c1ccc(Cl)cc1 | WSU-DLCL2 | S |
| C=CC(=O)N1CCC[C@@H](n2nc(-c3ccc(Oc4ccccc4)cc3)c3c(N)ncnc32)C1 | WSU-DLCL2 | S |
| NC1(c2ccc(-c3nc4ccn5c(=O)[nH]nc5c4cc3-c3ccccc3)cc2)CCC1 | WSU-DLCL2 | S |
| Cn1cc(C2=C(c3cn(C4CCN(Cc5ccccn5)CC4)c4ccccc34)C(=O)NC2=O)c2ccccc21 | WSU-DLCL2 | ADD. |

---

# Test system: WSU-DLCL2
# procedure.summary: Combination of EPZ-6438 and other therapeutic agents (4+3 model), WSU-DLCL2
# test.parameters: Mutant EZH2 GCB; EPZ-6438 4 days then co-treatment 3 days (4+3 model)
assay.endpoint: combination effect with EPZ-6438, WSU-DLCL2

| compound | recorded.result |
| --- | --- |
| CCCS(=O)(=O)Nc1ccc(F)c(C(=O)c2c[nH]c3ncc(-c4ccc(Cl)cc4)cc23)c1F [Vemurafenib] | ADD. |
| CCOC(=O)CCNc1cc(N2CCc3ccccc3CC2)nc(-c2ccccn2)n1 [GSK J4] | ADD. |
| CCn1c(-c2nonc2N)nc2c(C#CC(C)(C)O)ncc(OC[C@H]3CCCNC3)c21 [GSK690693] | S |
| COC1=CC(c2cc3ccccc3[nH]2)=N/C1=C\c1[nH]c(C)cc1C [Obatoclax] | ADD. |
| CC(C)C[C@H](NC(=O)[C@H](Cc1ccccc1)NC(=O)c1cnccn1)B(O)O [Velcade] | ADD. |
| CC1(C)CCC(c2ccc(Cl)cc2)=C(CN2CCN(c3ccc(C(=O)NS(=O)(=O)c4ccc(N[C@H](CCN5CCOCC5)CSc5ccccc5)c(S(=O)(=O)C(F)(F)F)c4)cc3)CC2)C1 [Navitoclax] | S |
| Cc1sc2c(c1C)C(c1ccc(Cl)cc1)=N[C@@H](CC(=O)OC(C)(C)C)c1nnc(C)n1-2 [JQ1] | S |

---

# System: DOHH2
# procedure.summary: Combination of EPZ-6438 and other therapeutic agents (4+3 model), DOHH2
# Format: cell-based
# test.parameters: WT EZH2 GCB

| given.smiles | target | combination effect with EPZ-6438, DOHH2 |
| --- | --- | --- |
| C[C@@H]1C[C@H]2[C@@H]3CCC4=CC(=O)C=C[C@]4(C)[C@@]3(F)[C@@H](O)C[C@]2(C)[C@@]1(O)C(=O)CO | DOHH2 | S |
| CCOC(=O)CCNc1cc(N2CCc3ccccc3CC2)nc(-c2ccccn2)n1 | DOHH2 | ADD. |
| C[C@]12C=CC(=O)C=C1CC[C@@H]1[C@@H]2[C@@H](O)C[C@@]2(C)[C@H]1CC[C@]2(O)C(=O)CO | DOHH2 | S |
